B1: CDC25B (parent)
chain: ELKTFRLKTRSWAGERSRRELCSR

# Variants of: B1
# assay-summary: protein stability index of a GFP-peptide fusion (GPS, HEK-293T) (PSI 1-6); higher = more stable;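 further: lentivirally expressed fusions sorted by FACS into six bins by GFP to DsRed ratio, PSI derived from sequencing read proportions per bin multiplied by bin number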
# condition-parameters: c terminus: a fixed tail appended
// reported protein stability index per item
measured-metric: protein stability index

>>> numeric_value("R19Y")
3.51
>>> numeric_value("E15A")
3.04
>>> numeric_value("W12V")
3.45
>>> numeric_value("R16N")
3.34
>>> numeric_value("G14K")
2.7
>>> numeric_value("L2G")
3.75
>>> numeric_value("E1Q")
3.57
>>> numeric_value("C22H")
3.42
>>> numeric_value("T4E")
3.16
>>> numeric_value("R6W")
1.89
>>> numeric_value("R6H")
3.25
>>> numeric_value("T4H")
3.27
>>> numeric_value("L2T")
3.72
>>> numeric_value("A13V")
2.44
>>> numeric_value("L2S")
4.12
>>> numeric_value("F5K")
4.24
>>> numeric_value("L7A")
3.75
>>> numeric_value("E15F")
2.58
>>> numeric_value("W12M")
2.43
>>> numeric_value("C22V")
3.54
>>> numeric_value("S11K")
2.64
>>> numeric_value("R24D")
2.91
